- Test system: NCI/ADR-RES
- measurement.protocol: NCI tumour cell line growth inhibition, 48 h
Calls of active or inactive are those of the source. Cut-off read from the data, not from the text of the source: active = GI50 up to about 1.1 µM and inactive = higher.
Classes used: YES (active), NO (inactive)

| sample.smiles | assigned.label |
| --- | --- |
| O=[N+]([O-])c1cccc2nc3ccccc3c(NCCNCCO)c12 | YES |
| O=C1Nc2ccccc2/C1=C\c1c(Cl)[nH]c2ccccc12 | YES |
| COc1ccc(/C=C(/c2ccc(OC)cc2)c2c(Cl)cc(Cl)c(/C(=C\c3ccc(OC)cc3)c3ccc(OC)cc3)c2/N=N/c2ccccc2)cc1 | NO |
| COc1ccc(/C=C2\CCNC2=O)cc1 | NO |
| CSc1csc(-c2ccc(-c3ccc(-c4cc(SC)cs4)s3)s2)c1 | NO |
